- target: Protein O-GlcNAcase (Homo sapiens, UniProt O60502)
- Sequence (O60502 whole entry): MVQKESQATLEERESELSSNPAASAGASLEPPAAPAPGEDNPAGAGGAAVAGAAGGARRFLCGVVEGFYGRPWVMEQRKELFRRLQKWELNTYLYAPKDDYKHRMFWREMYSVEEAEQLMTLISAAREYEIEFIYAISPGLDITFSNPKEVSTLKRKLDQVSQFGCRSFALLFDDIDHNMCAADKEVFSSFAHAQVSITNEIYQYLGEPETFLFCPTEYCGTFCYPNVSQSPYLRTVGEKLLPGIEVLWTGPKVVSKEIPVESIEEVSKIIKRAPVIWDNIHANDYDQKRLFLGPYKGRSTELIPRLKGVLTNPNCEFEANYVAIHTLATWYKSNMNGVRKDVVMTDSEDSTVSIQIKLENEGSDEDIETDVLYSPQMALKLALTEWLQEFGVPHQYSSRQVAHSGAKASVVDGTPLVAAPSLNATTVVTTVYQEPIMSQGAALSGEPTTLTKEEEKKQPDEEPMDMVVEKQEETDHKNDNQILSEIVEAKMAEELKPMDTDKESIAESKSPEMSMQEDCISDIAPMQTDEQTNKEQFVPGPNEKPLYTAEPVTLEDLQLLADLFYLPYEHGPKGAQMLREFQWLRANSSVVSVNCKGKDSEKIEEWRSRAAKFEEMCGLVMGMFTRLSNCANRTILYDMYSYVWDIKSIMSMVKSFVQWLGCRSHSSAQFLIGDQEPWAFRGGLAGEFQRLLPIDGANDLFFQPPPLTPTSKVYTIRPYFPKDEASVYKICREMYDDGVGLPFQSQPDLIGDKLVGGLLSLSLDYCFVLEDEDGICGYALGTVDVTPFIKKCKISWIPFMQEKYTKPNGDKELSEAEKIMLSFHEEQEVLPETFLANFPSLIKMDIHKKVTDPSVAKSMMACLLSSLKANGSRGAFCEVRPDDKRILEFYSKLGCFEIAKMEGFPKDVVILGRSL
- protocolNotes: Inhibition of recombinant human OGA
quantity: Ki (nM)
Kindly answer with a numeric value in nM, unit omitted.

Illustrative cases are given below, each with its answer.
compoundString	target	quantity	measured
CCNC1=N[C@@H]2[C@@H](OC)[C@H](O)[C@@H](CO)O[C@@H]2S1	Protein O-GlcNAcase (Homo sapiens, UniProt O60502)	Ki	270
CNC1=N[C@@H]2[C@H](F)[C@H](O)[C@@H](CO)O[C@@H]2S1	Protein O-GlcNAcase (Homo sapiens, UniProt O60502)	Ki	0.53
CNC1=N[C@@H]2[C@H](F)[C@H](O)[C@@H](CF)O[C@@H]2S1	Protein O-GlcNAcase (Homo sapiens, UniProt O60502)	Ki	35
OC[C@H]1O[C@@H]2SC(N3CCCCC3)=N[C@@H]2[C@@H](O)[C@@H]1O	Protein O-GlcNAcase (Homo sapiens, UniProt O60502)	Ki	1800
CNC1=N[C@@H]2[C@@H](F)[C@H](O)[C@@H](CF)O[C@@H]2S1	Protein O-GlcNAcase (Homo sapiens, UniProt O60502)	Ki	50

(Q) Fill in: Ki of `CCNC1=N[C@@H]2[C@@H](O)[C@H](O)[C@@H](COC)O[C@@H]2S1` is ___
(A) 190

(Q) # Ki lookup, item `CCCNC1=N[C@@H]2[C@@H](O)[C@H](O)[C@@H](CF)O[C@@H]2S1`
(A) 14

----------
- protocolNotes: Ratio of drug level in dog blood to plasma
- Assay type: ADME, cell-free, Canis lupus familiaris
- testParameters: whole blood
quantity: blood plasma ratio

(Q) Sample `CCNC1=N[C@@H]2[C@@H](O)[C@H](O)[C@@H](C(F)F)O[C@@H]2S1` — what was its blood plasma ratio?
(A) 0.9 to 1.1

----------
- protocolNotes: Ratio of Cmax in brain to plasma in rat at 10 mg/kg, po
- Type: ADME, organism-based
quantity: Kp
Reply briefly: the number, and no unit.

(Q) I would be grateful if you could share the reported Kp for `CCNC1=N[C@@H]2[C@@H](O)[C@H](O)[C@@H](CO)O[C@@H]2S1` .
(A) 0.1

----------
- protocolNotes: Drug excretion in rat at 10 mg/kg, po
- Assay type: ADME, organism-based
- testParameters: in vivo, read-out: Drug excretion
quantity: dose excreted (%)
All answers are understood in %, so give the number only.

(Q) // lookup dose excreted for `[3H][C@@]1(O)[C@@H](C(F)F)O[C@@H]2SC(NCC)=N[C@@H]2[C@H]1O`
(A) 96

----------
- Tested on: MDR1
- protocolNotes: Apparent permeability in pig LLC-PK1 cells transfected with MDR1
- Format: ADME, cell-based, Sus scrofa
Listing: Papp of selected compounds
Your answer should be a plain number; it is taken to be in ×10⁻⁶ cm/s.

Some compounds with recorded Papp:
CCCNC1=N[C@@H]2C[C@H](O)[C@@H](CO)O[C@@H]2S1 2.5
C=CCNC1=N[C@@H]2[C@@H](O)[C@H](O)[C@@H](C(F)F)O[C@@H]2S1 12
CCNC1=N[C@@H]2[C@@H](O)[C@H](O)[C@@H](CF)O[C@@H]2S1 6.1
CNC1=N[C@@H]2[C@@H](O)[C@H](O)[C@@H](CF)O[C@@H]2S1 5.3
CCCNC1=N[C@@H]2[C@@H](O)[C@H](O)[C@@H](C(F)F)O[C@@H]2S1 14

(Q) Given `CC1CN(C2=N[C@@H]3[C@@H](O)[C@H](O)[C@@H](CO)O[C@@H]3S2)C1` , state its recorded Papp.
(A) 2.4
